Molecular target: T1, recombinant human CTLA4-Fc (Sino Biological, 11159-H03H) (human, UniProt P16410 36-162)
T1 construct: bought; also called human CTLA4 fused with human FC fragment
T1 sequence (looked up): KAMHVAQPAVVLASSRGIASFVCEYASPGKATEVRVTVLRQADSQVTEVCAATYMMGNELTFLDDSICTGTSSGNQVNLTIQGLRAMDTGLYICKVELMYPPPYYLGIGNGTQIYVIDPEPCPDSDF
Assay: ELISA, CTLA4-Fc coated, batch 2
# Lookup of reported LogEC50 keyed by entry
Lab note: write the figure by itself, no unit.

TY22566 (antibody, IgG1, V domains shown) VH: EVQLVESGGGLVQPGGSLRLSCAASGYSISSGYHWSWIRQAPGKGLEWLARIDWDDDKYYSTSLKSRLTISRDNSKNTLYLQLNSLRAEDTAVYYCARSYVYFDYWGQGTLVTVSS VL: EVGSYPNPASDCVPYYYACAYSGRSAGGGGSPLGLAGSGGSDIQLTQSPSSLSASVGDRVTITCRASQSVRGRFLAWYQQKPGKAPKLLIYDASNRATGIPSRFSGSGSGTDFTLTISSLQPEDFATYYCQQSSSWPPTFGQGTKVEIKR : -6.79

Next binder, LogEC50 to be filled in.
GET /values?readout=LogEC50&item= TY22404 (antibody, IgG1, V domains shown, also called B13197 (peptide name)) VH: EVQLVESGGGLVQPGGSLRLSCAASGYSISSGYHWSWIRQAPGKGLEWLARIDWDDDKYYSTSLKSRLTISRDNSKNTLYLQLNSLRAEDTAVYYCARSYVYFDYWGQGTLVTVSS VL: EVGSYPNPSSDCVPYYYACAYSGRSAGGGGSPLGLAGSGGSDIQLTQSPSSLSASVGDRVTITCRASQSVRGRFLAWYQQKPGKAPKLLIYDASNRATGIPSRFSGSGSGTDFTLTISSLQPEDFATYYCQQSSSWPPTFGQGTKVEIKR
-6.89
